Cited source for all entries: the nanobody polyreactivity screen of Harvey et al. (2022)

assayInfo: yeast display, Sf9 membrane polyspecificity reagent, FACS + sequencing; frameworks hold sequencing errors
endpointName: polyreactivity (PSR sort gate)

monomerSequence: QVQLVESGGGLVQAGGSLRLSCAASGRTFWYNAMGWYRQAPGKEREFVAAITSSGGSTYYADSVKGRFTISRDNAKHTVFLQMNSLKPEDTAVYYCNKRPGPYKWPPRHDYWGQGTQVTVSS
resultValue: low polyreactivity
//
monomerSequence: QVQLVESGGGLVQAGGSLRLSCAASGRTFFPYAMGWYRQAPGKERELVAAITGSGSSTNYADSVKGRFTISRDNAKNTVYLQMTRLKPVDTAVYYCAKPYYRLEDYWGQGTQVTVSS
resultValue: low polyreactivity
